Reference source for all entries: patent US6881741B2

Biological target: recombinant HCV NS5B (HCV RNA-dependent RNA polymerase) (Hepatitis C virus genotype 1b, UniProt P26663)
Sequence (P26663 2420-3010 limits assumed): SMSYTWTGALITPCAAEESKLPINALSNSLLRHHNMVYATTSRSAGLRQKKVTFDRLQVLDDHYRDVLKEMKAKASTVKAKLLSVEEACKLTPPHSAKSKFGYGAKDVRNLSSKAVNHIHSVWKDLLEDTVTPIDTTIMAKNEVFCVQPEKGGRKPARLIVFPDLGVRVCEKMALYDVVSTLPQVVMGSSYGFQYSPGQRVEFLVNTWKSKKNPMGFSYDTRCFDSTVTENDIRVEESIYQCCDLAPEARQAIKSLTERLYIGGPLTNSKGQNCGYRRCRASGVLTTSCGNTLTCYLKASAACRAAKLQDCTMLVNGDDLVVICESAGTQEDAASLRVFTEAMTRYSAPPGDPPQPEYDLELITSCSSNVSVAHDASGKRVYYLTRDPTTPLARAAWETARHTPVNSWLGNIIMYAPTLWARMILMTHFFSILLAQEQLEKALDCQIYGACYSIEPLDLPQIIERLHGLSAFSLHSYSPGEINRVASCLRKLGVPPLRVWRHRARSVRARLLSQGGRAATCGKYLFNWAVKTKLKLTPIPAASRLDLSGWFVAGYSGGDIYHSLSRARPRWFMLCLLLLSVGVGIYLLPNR
Assay: biochemical
Settings: HCV polymerase activity, list of compounds of Example 27; read-out: IC50 (polymerase activity)
Parameter: IC50

CC1CCC(C(=O)N(c2cc(-c3ccccc3)sc2C(=O)O)C(C)C)C(=O)C1 (centres unmarked) [Compound 513]    < 5 µM
Cc1cccc(CN(C(=O)C(C)C)c2cc(-c3ccccc3)sc2C(=O)O)c1 [Compound 465]    5 to 20 µM
Cc1ccc(CN(C(=O)C2CC2)c2cc(-c3ccccc3)sc2C(=O)O)cc1 [Compound 469]    5 to 20 µM
CCC(=O)N(Cc1cccc(Cl)c1)c1cc(-c2ccccc2)sc1C(=O)O [Compound 477]    5 to 20 µM
CCCC(=O)N(Cc1ccc(Cl)cc1)c1cc(-c2ccccc2)sc1C(=O)O [Compound 462]    5 to 20 µM
O=C(O)c1sc(-c2ccccc2)cc1N(Cc1ccc(C(F)(F)F)cc1)C(=O)CC1CCCC1 [Compound 416]    5 to 20 µM
O=C(O)c1sc(-c2ccccc2)cc1N(Cc1ccc(Cl)cc1)C(=O)CC1CCCC1 [Compound 463]    < 5 µM
CN(C(=O)C1CCCC1)c1cc(-c2ccccc2)sc1C(=O)O [Compound 497]    < 5 µM
CC(=O)N(Cc1ccc(Cl)cc1)c1cc(-c2ccccc2)sc1C(=O)O [Compound 455]    5 to 20 µM
C=CCN(C(=O)CC1CCCC1)c1cc(-c2ccccc2)sc1C(=O)O [Compound 401]    < 5 µM
CC(C)N(c1cc(-c2ccccc2)sc1C(=O)O)C(=O)[C@]1(C)CC[C@@H](C)CC1 [Compound 500]    < 5 µM
O=C(O)c1sc(-c2ccccc2)cc1N(Cc1ccccc1)C(=O)CC1CCCC1 [Compound 487]    < 5 µM
CC1CCC(C(=O)N(c2cc(-c3ccc(C(F)(F)F)cc3)sc2C(=O)O)C(C)C)CC1 (centres unmarked) [Compound 575]    < 5 µM
CC1CCC(C(=O)N(c2cc(-c3ccccc3)sc2C(=O)O)C(C)C)C(C)C1 (centres unmarked) [Compound 407]    < 5 µM
NC1CCC(N(C(=O)c2ccc(Cl)cc2Cl)c2cc(-c3ccccc3)sc2C(=O)O)CC1 (centres unmarked) [Compound 528]    < 5 µM
CC1CCC(C(=O)N(c2cc(-c3ccccc3)sc2C(=O)O)C(C)C)C(O)C1 (centres unmarked) [Compound 402]    < 5 µM
CC(c1ccccc1)N(C(=O)c1ccc(Cl)cc1Cl)c1cc(-c2ccccc2)sc1C(=O)O (centres unmarked) [Compound 403]    < 5 µM

====

Biological target: recombinant HCV NS5B (HCV RNA-dependent RNA polymerase) (Hepatitis C virus genotype 1b, UniProt P26663)
Experiment: biochemical
Conditions: HCV polymerase activity, list of compounds of Example 27; read-out: IC50 (polymerase activity)
Parameter: IC50

O=C(O)c1sc(-c2ccccc2)cc1N(Cc1ccc([N+](=O)[O-])cc1)C(=O)CC1CCCC1 [Compound 443]    < 5 µM
CC(C)CC(=O)N(Cc1ccccc1)c1cc(-c2ccccc2)sc1C(=O)O [Compound 453]    < 5 µM
CCCC(=O)N(CC)c1cc(-c2ccccc2)sc1C(=O)O [Compound 493]    5 to 20 µM
COCC(C)N(C(=O)C1CCC(C)CC1)c1cc(-c2ccccc2)sc1C(=O)O (centres unmarked) [Compound 578]    < 5 µM
CC(C)CC(=O)N(Cc1ccc(C(F)(F)F)cc1)c1cc(-c2ccccc2)sc1C(=O)O [Compound 412]    5 to 20 µM
CC1CCC(C(=O)N(c2cc(-c3ccccc3)sc2C(=O)O)C(C)C)C(O)C1 (centres unmarked) [Compound 409]    < 5 µM
CC(C)(C)OC(=O)N1CCCC(N(C(=O)c2ccc(Cl)cc2Cl)c2cc(-c3ccccc3)sc2C(=O)O)CC1 (centres unmarked) [Compound 507]    < 5 µM
CC(C)(C)c1ccc(CN(C(=O)C2CCC2)c2cc(-c3ccccc3)sc2C(=O)O)cc1 [Compound 439]    < 5 µM
